# tested target: E3 (six-finger Sp1C framework protein) (synthetic construct)
# Sequence (chain, as listed by the source): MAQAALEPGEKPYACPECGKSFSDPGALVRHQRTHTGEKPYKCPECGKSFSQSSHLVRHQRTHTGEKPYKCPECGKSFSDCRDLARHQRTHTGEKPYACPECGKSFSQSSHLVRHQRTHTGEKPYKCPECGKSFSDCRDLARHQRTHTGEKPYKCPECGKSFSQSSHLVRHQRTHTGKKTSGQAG
# assay notes: EMSA; ±10%; ZBA buffer with ZnCl2, room temperature
value kind: Kd (pM)
Numbers only, in pM.

stdin: Need Kd of E3 target site (erbB-3 5'-UTR) (dsDNA) DNA 1: GGAGCCGGAGCCGGAGTC DNA 2: GACTCCGGCTCCGGCTCC , thanks.
stdout: 350
